Test: Toxicity in mouse erythrocytes assessed as hemolysis at 0.08 mM during 5 mins
Format: cell-based, Erythrocyte
Settings: read-out: Activity

# COMPOUND, hemolysis at 5 min, 80 µM, %
records = [
    ("CO[C@@H]1[C@@H](OC)[C@H](O[C@@H]2C=C3[C@H](O)C[C@@]4(O)[C@@H]5[C@@H](O)[C@H](O)[C@H]([C@H](C)/C=C/[C@@H](C)[C@H](C)CO)[C@@]5(C)CC[C@@H]4[C@@]3(C)CC2)OC[C@H]1O [HENRICIOSIDE H2]", 70),
    ("CO[C@@H]1[C@@H](OC)[C@H](O[C@@H]2C=C3[C@H](O)C[C@@]4(O)[C@@H]5[C@@H](O)[C@H](O)[C@H]([C@H](C)/C=C/C(C)CCO)[C@@]5(C)CC[C@@H]4[C@@]3(C)CC2)OC[C@H]1O (some centres not stated)", 100),
]

---

Assay: Toxicity in mouse erythrocytes assessed as hemolysis at 0.1 mM during 5 mins
Type: cell-based, Erythrocyte
Conditions: mouse erythrocytes, read-out: Activity

# MOL SMILES, hemolysis at 5 min, 100 µM / %
records = [
    ("CC(C)[C@@H](O)CC[C@@H](C)[C@H]1C[C@@H](O)[C@@H]2[C@]1(C)CC[C@@H]1[C@@]3(C)CC[C@H](O)[C@H](O)[C@@H]3[C@H](O)C[C@]12O", 100),
]
